# Test system: MARIMO
# experimentSummary: cell viability relative to vehicle control; higher = less cytotoxic;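 note: after 48 h exposure read by CellTiter-Glo luminescence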
# testSettings: 10 µM; SRSF2 genotype: SRSF2 wt/wt
Where a name gives a salt, the structure may show the parent alone.
assayMetric: cell viability (%)
Answers are plain numbers, in %.

Some solved entries appear below for comparison.
{"compound": "CCN(CC)Cc1cc(Nc2ccnc3cc(Cl)ccc23)ccc1O [Amodiaquine hydrochloride]", "readingUnit": "%", "measuredNumber": 67.4}
{"compound": "CCCCC(=O)O[C@]1(C(=O)CO)[C@@H](C)C[C@H]2[C@@H]3CCC4=CC(=O)C=C[C@]4(C)[C@@]3(F)[C@@H](O)C[C@@]21C [Betamethasone valerate (Betnovate)]", "readingUnit": "%", "measuredNumber": 110}
{"compound": "C[C@H](CCC(=O)O)[C@H]1CC[C@H]2[C@@H]3[C@@H](O)C[C@@H]4C[C@H](O)CC[C@]4(C)[C@H]3CC[C@]12C", "readingUnit": "%", "measuredNumber": 98.9}
{"compound": "Cc1cc(Nc2ccc(NC(=O)c3ccc(Nc4ccnc5ccccc45)cc3)cc2)nc(N)n1", "readingUnit": "%", "measuredNumber": 0.36}
{"compound": "CC[C@H]1OC(=O)[C@H](C)[C@@H](O[C@H]2C[C@@](C)(OC)[C@@H](O)[C@H](C)O2)[C@H](C)[C@@H](O[C@@H]2O[C@H](C)C[C@H](N(C)C)[C@H]2O)[C@](C)(O)C[C@@H](C)CN(C)[C@H](C)[C@@H](O)[C@]1(C)O", "readingUnit": "%", "measuredNumber": 90.4}

// each compound listed below needs its cell viability
1. CC=C(C)C(=O)O
2. O=C(Nc1ccccc1)Nc1ccc(-c2ccc(C(=O)[C@@H]3CCC[C@H]3C(=O)O)cc2)cc1

a:
1: 103; 2: 106

----------
# Test system: K562
# experimentSummary: cell viability relative to vehicle control; higher = less cytotoxic
# testSettings: 10 µM; SRSF2 genotype: SRSF2 wt/wt
Please respond with reported cell viability for every item in the list.
Give bare numbers, in %.

Worked set:
{"molecule": "CC(=O)OC(C)(C)CCC(=O)[C@](C)(O)[C@H]1[C@H](O)C[C@@]2(C)[C@@H]3CC=C4[C@@H](C[C@H](O)[C@@H](O)C4(C)C)[C@]3(C)C(=O)C[C@]12C", "target": "K562", "assayMetric": "cell viability", "measuredNumber": 77.4}
{"molecule": "COC(=O)C1=CO[C@@H](O[C@@H]2O[C@H](CO)[C@@H](O)[C@H](O)[C@H]2O)[C@@H]2[C@H](C)O[C@@H](O)C[C@H]12 [Morroniside]", "target": "K562", "assayMetric": "cell viability", "measuredNumber": 93}
{"molecule": "Nc1ncnc2c1c(-c1cccc(OCc3ccccc3)c1)cn2C1CC(CN2CCCC2)C1 (configuration not stated)", "target": "K562", "assayMetric": "cell viability", "measuredNumber": 88.4}
{"molecule": "Cc1nc(Nc2cnn(C3CCNCC3)c2)nc2c1N(C)C(=O)c1cc3ccccc3cc1N2C", "target": "K562", "assayMetric": "cell viability", "measuredNumber": 60.7}

Look at each molecule and report its cell viability.
1. Cc1cc(O)c(C(=O)CCC(C)C)c(=O)o1
2. COc1ccc(/C=C/C(=O)c2c(O)cc(OC)cc2OC)cc1
3. CO/N=C(\C(=O)N[C@@H]1C(=O)N2C(C(=O)OC(C)OC(C)=O)=C(COC(N)=O)CS[C@H]12)c1ccco1 (some centres not stated)

a:
101
92.7
96.2

Hello, the source for this data is the supplement of paper PMC10981050, in case you need it.
